pIC50: −log10 of the molar value.
// cross-study collection: pIC50 for human DGAT2 (hDGAT2) (Homo sapiens)
Assign class by pIC50: not lower than 8 means label 1; lower than 8 means label 0.

Please review the following examples before continuing.
molecule: Cn1nccc1-c1nn(-c2cccc(OC(F)F)c2)c2ccc(C(=O)NC3(C)CS(=O)(=O)C3)cc12
category: label 0
--
molecule: Cc1c(C(=O)NC2(C)CCS(=O)(=O)CC2)nc2cc(F)c(Oc3ncc(F)cc3OCC(F)(F)F)cn12
category: label 1
--
molecule: CC(CO)(CO)NC(=O)c1ccc2c(-c3ccccc3Cl)nn(-c3ccc(F)cc3)c2c1
category: label 0
--
molecule: Cc1ccc2[nH]c(CCNC(=O)c3ccc(-c4cccc(C(F)(F)F)c4)c4c3CN(C(=O)NC(C)(C)C)CC4)nc2c1
category: label 0
--
molecule: Cc1c(C(=O)NC2(CC(F)(F)F)CCS(=O)(=O)CC2)nc2ccc(Oc3ncc(F)cc3OCC(F)F)cn12
category: label 1
--
molecule: CCOc1cccnc1Oc1ccc2nc(C(=O)N[C@@H]3CCCC[C@@H]3O)cn2c1
category: label 0
--
molecule: Cc1c(C(=O)NC2(C)CCS(=O)(=O)C(C)(C)C2)nc2ccc(Oc3ncc(Cl)cc3OCC(F)F)cn12 (centres unmarked)
category: label 0

(Q) Hello, I need to know if O=C(NC1CCS(=O)(=O)C1)c1ccc2c(-c3ccccc3Cl)nn(-c3ccc(Cl)cn3)c2c1 (single isomer, unassigned) has measured pIC50 not below 8. Thanks!
(A) label 0

* * *

// cross-study collection: IC50 for human DGAT2 (hDGAT2) (Homo sapiens)

(Q) Return reported IC50; argument: CC(C)(O)Cc1nn(-c2cccc(OC(F)F)c2)c2ncc(C(=O)NC3(C)CS(=O)(=O)C3)cc12
(A) 0.0058 µM

(Q) And Cc1noc(C2CC2C(=O)NCc2ccc(-c3cccc(OC(F)(F)F)c3)c3c2CN(C(=O)NC2CCS(=O)(=O)C2)CC3)n1 (stereo not drawn) ?
(A) 0.463 µM

(Q) And COc1cccc(-c2ccc(CNC(=O)[C@@H]3C[C@H]3c3ccccc3)c3c2CCN(C(=O)Nc2ccncc2)C3)c1 (relative stereo) ?
(A) 2.1 µM

(Q) And O=C(NC1CCS(=O)(=O)C1)c1ccc2c(-c3ccccc3Cl)nn(Cc3ccccc3)c2c1 (racemic) ?
(A) 0.383 µM

(Q) And CC(C)(O)c1nn(-c2cccc(OC(F)F)c2)c2ccc(C(=O)N[C@@]3(C)CCS(=O)(=O)C3)cc12 ?
(A) 0.027 µM

(Q) And Cc1c(C(=O)NC2(C)CCS(=O)(=O)CC2)nc2ccc(Oc3ncc(F)cc3OCC(F)(F)C(F)F)cn12 ?
(A) 0.342 µM

(Q) And CCCCC(NC(=O)c1ccc2c(-c3ccccc3Cl)nn(-c3ccc(F)cc3)c2c1)C(O)C(F)(F)F (stereo not drawn) ?
(A) 0.534 µM

(Q) And O=C(NC1CCOCC1)c1ccc2c(-c3ccccc3Cl)nn(-c3ccc(F)cc3)c2c1 ?
(A) 0.505 µM

(Q) And CC(C)(NC(=O)c1cnc2c(-c3cccc(OC(F)F)c3)cn(-c3ncc(F)cn3)c2c1)C(N)=O ?
(A) 3.42 µM

(Q) And CC(C)(C)NC(=O)N1CCc2c(-c3cccc(C(F)(F)F)c3)ccc(C(=O)NCc3cccc4cccnc34)c2C1 ?
(A) 0.0676 µM

(Q) And CC(C)n1nc(-c2cc(OC(F)F)ccc2F)c2cnc(C(=O)NC3(C)CS(=O)(=O)C3)cc21 ?
(A) 0.0017 µM

(Q) And CC1(NC(=O)c2ccc3c(-c4cccc(OC(F)F)c4)cn(-c4ncc(F)cn4)c3c2)CCS(=O)(=O)C1 (single isomer, unassigned; enantiomer b) ?
(A) 0.00091 µM

(Q) And COc1cccc(COc2ccn3nc(C(=O)NC4(C)CCS(=O)(=O)CC4)cc3n2)n1 ?
(A) > 9.99 µM

(Q) And Cc1cc2nc(C(=O)NC3(C)CCS(=O)(=O)CC3)c(C)n2nc1Oc1ncc(F)cc1OCC(F)F ?
(A) 0.0013 µM

(Q) And CC1(NC(=O)c2ccc3c(-c4ccccc4Cl)cn(-c4ccc(F)cc4)c3c2)CCS(=O)(=O)C1 (single isomer, unassigned; enantiomer b) ?
(A) 0.0066 µM

(Q) And CC1(NC(=O)c2ccc3c(-c4ccccc4Cl)c(C#N)n(-c4ccc(F)cc4)c3c2)CCS(=O)(=O)C1 (single isomer, unassigned; enantiomer a) ?
(A) 0.448 µM

(Q) And COC(=O)c1cccc(-c2ccc(CNC(=O)C3CC3c3ccccc3)c3c2CCN(C(=O)c2c[nH]nc2C2CC2)C3)c1 (stereo not drawn) ?
(A) 0.632 µM
